System Tested: E. coli Hsp70 (DnaK) (E. coli, UniProt P0A6Y8 1-638)
Experiment: SPR
Kd reference
The reply should contain only the number, in µM.

Some solved cases for reference:
| Binder | Kd [µM] |
| --- | --- |
| ALLLMYRR | 4.45 |
| NRLLTG | 2.53 |
| NRNNTG | 7.31 |

Could you now look at the following binder, please?
Ask: Give the measured Kd of `ANNNMYRR` .
Reply: 8.96
